test: NCI Yeast Anticancer Drug Screen. Data for the bub3 strain (AID 167); details: S. cerevisiae bub3 mutant strain, stronger effect = higher value; at 50.0 µM unless noted
This is part of a sample that, as a whole, favours compounds with a hit. Of some 79,000 tested, about 15% had one in any assay. Where a SMILES comes first, the peptide text is derived from it. [ ]: non-standard residue; d: D form. The star is where a group is joined. NMeF = CN[C@@H](Cc1ccccc1)C(=O)O; NMeV = CN[C@H](C(=O)O)C(C)C; Boc = CC(C)(C)OC(=O)*; OBn = c1ccc(CO*)cc1
Outcome: Met for growth inhibition of at least -10%; Not met for anything lower.

Compound: O=C1C(=O)c2ccccc2C(O)=C1C1CCCCC1
Class: Met
//
Compound: CC(O)c1ccc[cH-]1.CC(O)c1ccc[cH-]1.[Fe+2] (centres undefined)
Class: Met
//
Compound: COc1cc(OC)c(NC(=O)C2=C(C)NC(C)=C(C(=O)Nc3cc(Cl)c(OC)cc3OC)C2c2cccc([N+](=O)[O-])c2)cc1Cl
Class: Met
//
Compound: CC(C)c1ccccc1O
Class: Met
//
Compound: C=CCC(O)CCCCC (centres undefined)
Class: Not met
//
Compound: O=C(CC1CCCCC1)OCCOCCO
Class: Met
//
Compound: CNC(=O)CNC(=O)C(NC(=O)CNC(=O)C1CCCN1C(=O)C(C)NC(=O)C(NC(C)=O)C(C)C)C(C)C (centres undefined) (Ac-VAPGVG-NHMe; configuration not given here)
Class: Not met
//
Compound: CC1NC(=O)OC12CCCCC2 (centres undefined)
Class: Met
//
Compound: CC(C)[C@@H](C(=O)N1CCC[C@H]1C(=O)OCc1ccccc1)N(C)C(=O)[C@H](C(C)C)N(C)C(=O)[C@H](Cc1ccccc1)N(C)C(=O)[C@H](NC(=O)OC(C)(C)C)C(C)C (Boc-[dV][NMeF][NMeV][NMeV]P-OBn)
Class: Not met

====

test: NCI Yeast Anticancer Drug Screen. Data for the mlh1 rad18 strain (AID 175); details: S. cerevisiae mlh1 rad18 strain growth inhibition, stronger effect = higher value; at 50.0 µM unless noted
About 79,000 compounds went through this panel and 15% of them were active in at least one assay; those are over-represented in the sample as a whole.

Molecule: O=P(CSCCO)(c1ccccc1)c1ccccc1
growth inhibition (%): -36.7

Molecule: CSc1nc(N)c2cnn(Cc3ccccc3)c2n1
growth inhibition (%): 31.4

Molecule: CC(C)C(=O)Nc1ccc(S(=O)(=O)Nc2ccc(N)cc2O)cc1
growth inhibition (%): -0.75

Molecule: COc1cc(C2NC(C(=O)O)CS2)cc(OC)c1OC (configuration not stated)
growth inhibition (%): -5.85

Molecule: COCN(CCc1ccccc1)CCN(C)C
growth inhibition (%): 16.5

Molecule: O=C(O)C(=O)c1c(O)[nH]c2ccccc12
growth inhibition (%): 17.6

Molecule: CCOCCC(=O)OCCCl
growth inhibition (%): 22.9

Molecule: CCN(CCO)c1cccc(C)c1
growth inhibition (%): -7.2

Molecule: N#CC(C(=S)Nc1ccccc1)=C1Nc2ccccc2N1
growth inhibition (%): -22.8

Molecule: CC(=O)c1cccc(NC(=O)CCCCCCCCC(=O)Nc2cccc(C(C)=O)c2)c1
growth inhibition (%): 2.95

Molecule: CCN(CC)CCNC(=O)c1cc(N2CCOCC2)ccn1
growth inhibition (%): 45.5

Molecule: CC1=NN(C(=O)Cc2ccccc2)C(=O)/C1=C\C=C\c1ccccc1
growth inhibition (%): -7.85

Molecule: COCc1ccccc1-n1nccc1S(C)=O (configuration not stated)
growth inhibition (%): -2.6

Molecule: Nc1nc2ncc(COc3ccc(C(=O)O)cc3)nc2c(=O)[nH]1
growth inhibition (%): 13.6

Molecule: Cc1[nH]c2c(ccc3c2ccc2c(=O)c(C)c(C)[nH]c23)c(=O)c1C
growth inhibition (%): 2.3

Molecule: FC(F)(F)C1CCCCC1[Si](C1CCCCC1C(F)(F)F)C1CCCCC1C(F)(F)F (configuration not stated)
growth inhibition (%): 5.7

Molecule: Cc1ccc2c(c1)C(C)(C)C(C)(C)C2(C)C
growth inhibition (%): -0.1

Molecule: CCN(CC)c1ccc(/C=C(\C)c2nc3ccc(C)cc3[nH]2)cc1
growth inhibition (%): 3.45

Molecule: C/C=C/C(=O)Oc1ccc[nH]c1=O
growth inhibition (%): -4.25

Molecule: CC(=O)CC(C)(C)c1cc(-c2ccccc2)on1
growth inhibition (%): 12.8

Molecule: COC1=CC(=O)C2CC=CC(CC(=O)O)C2(C)C1=O (configuration not stated)
growth inhibition (%): 4.5

Molecule: CCNC(=O)c1ccccc1N=NN(C)C
growth inhibition (%): 21.9

Molecule: CCCC(=O)CC(=O)C(F)(F)F.CCCC(=O)CC(=O)C(F)(F)F.CCCC(=O)CC(=O)C(F)(F)F.[Er]
growth inhibition (%): 50.1

Molecule: CCOC(=O)c1ccc(NC(=O)Nc2ccc(F)cc2)cc1
growth inhibition (%): 5.55

Molecule: CC1(O)C2CC3CC(C2)CC1C3 (configuration not stated)
growth inhibition (%): 10.3

Molecule: COc1ccc(COC(=O)Nc2ccccc2F)c(OC)c1OC
growth inhibition (%): 16.7

Molecule: O=[N+]([O-])c1ccccc1N1CCCCC1
growth inhibition (%): 27.2

Molecule: CCOc1ccc(N=Cc2ccc3cc(C)ccc3n2)cc1
growth inhibition (%): -19.9

Molecule: CC(=O)C12C[C@](C#N)(N3CCCCCC3)C1C=Cc1ccccc12 (some centres not stated)
growth inhibition (%): -56.4

Molecule: Cc1n[nH]c(=O)n1/N=C/c1ccncc1
growth inhibition (%): 7

Molecule: NC1=CN(CCCO)C2=N/C(=C\c3ccccc3)C(=O)N12
growth inhibition (%): 12.7

Molecule: O=C(Oc1ccccc1)C(=O)Oc1ccccc1
growth inhibition (%): 6.4

====

test: NCI Yeast Anticancer Drug Screen. Data for the sgs1 mgt1 strain (AID 161);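 also: 0% = growth of cultures given vehicle only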; conditions: S. cerevisiae sgs1 mgt1 strain, stronger effect = higher value; at 50.0 µM unless noted
The panel holds about 79,000 compounds, 15% with a hit somewhere; the sample as a whole holds those more often.

Molecule: COC(=O)c1cc(C)n(C)c(=O)c1CN
growth inhibition (%): -8.6

Molecule: CC(C)(C)C(=O)Oc1ccc([N+](=O)[O-])cc1
growth inhibition (%): -7.55

Molecule: CC(=O)OCCOCNC(=S)N/N=C(\C)c1ccco1
growth inhibition (%): 3.4

Molecule: O=C1CCCCCCCCCCCCCCCCC1
growth inhibition (%): -11.3

Molecule: Nc1ccccc1[N+](=O)[O-]
growth inhibition (%): -14.7

Molecule: CCOC(=O)c1c(-c2ccccc2)csc1NS(=O)(=O)c1ccc(C)cc1
growth inhibition (%): 87

Molecule: O=C1C(N2CCCCC2)=C(c2ccccc2)c2ccccc21
growth inhibition (%): -3.6

Molecule: FC(F)(F)c1cc(NC(=S)SCc2ccc3c(c2)OCO3)ccc1Cl
growth inhibition (%): 73.3

Molecule: COc1ccccc1OC(=O)c1ccc(Cl)cc1
growth inhibition (%): 18.7

Molecule: CCCC(C)C(=O)OC(CC)CC (stereo not drawn)
growth inhibition (%): 13.1

Molecule: O=C(O)CCCCC1CCCCC1
growth inhibition (%): 38.8

Molecule: COc1cc(Br)c(CC(NC=O)c2ccc(OC)c(OC)c2OC)cc1OC (stereo not drawn)
growth inhibition (%): -6.95

Molecule: O=C(NCCCl)Nc1c(Cl)cccc1Cl
growth inhibition (%): 6

====

Reported growth inhibition values for the following molecules.
Experiment: NCI Yeast Anticancer Drug Screen. Data for the mlh1 rad18 strain (AID 175)
Conditions: S. cerevisiae mlh1 rad18 strain growth inhibition, stronger effect = higher value; at 50.0 µM unless noted
Procedure: Growth inhibition of yeast strains with defined genetic alterations is measured as a screen for potential anti-cancer activity. Selected strains with alterations in DNA damage repair or cell cycle control were exposed to compounds and growth inhibition was measured relative to vehicle treated controls. The strain used in this assay is mlh1 rad18
This is part of a sample that, as a whole, favours compounds with a hit. Of some 79,000 tested, about 15% had one in any assay.

Molecule: O=C(Cc1ccc(CC(=O)NCCCCc2ccccc2)cc1)NCCCCc1ccccc1
growth inhibition [%]: 13.1
--
Molecule: Cc1ccc(S(=O)(=O)OCCOCCOS(=O)(=O)c2ccc(C)cc2)cc1
growth inhibition [%]: 17.8
--
Molecule: Cc1noc(NS(=O)(=O)c2ccc(Nc3nc(CC(=O)Nc4ccccc4)cs3)cc2)c1C
growth inhibition [%]: 9.2
--
Molecule: CCN(CC)CC(C)O (centres undefined)
growth inhibition [%]: 30.6
--
Molecule: CCOC(=O)C1=C(O)C(=O)C=C(O)C1=N
growth inhibition [%]: 9.65
--
Molecule: C=C1C=C2CCC3C(CCC4(C)C(C(C)CCCC(C)C)CCC34)C2(C)CC1 (centres undefined)
growth inhibition [%]: 74.2
--
Molecule: CCC12C=CCN3CC[C@@]4(c5cc([C@@]6(C(=O)OC)C[C@@H]7CN(CCc8c6[nH]c6ccccc86)C[C@](O)(CC)C7)c(OC)cc5N(C)[C@H]4[C@@](O)(C(=O)NCCCCCCCCCCCC(=O)O)[C@@H]1O)C32 (some centres undefined)
growth inhibition [%]: -17.6
--
Molecule: COc1ccc2c(c1OC(C)=O)-c1cc(OC(C)=O)cc3c1C(C2)N(C(=O)CBr)CC3 (centres undefined)
growth inhibition [%]: 59.4
--
Molecule: O=C(Nc1ccc2c(c1)Cc1c(F)cccc1-2)C(F)(F)F
growth inhibition [%]: 11.2
